All values here come from patent US20180200233A1.

Below: a set of entries, each annotated with reported pEC50.
Assay: in vitro
Type: cell-based, human
Details: human
pEC50: −log10 of the molar value.
PROPERTY NAME: pEC50

[[record]]
compound = "O=c1c(O)c(-c2cc(O)c(O)c(O)c2)oc2cc(O)cc(O)c12 [Myricetin, reference compound]"
quantitative_result = 3.27

[[record]]
compound = "O=C(O)C1Cc2[nH]cnc2CN1 (stereo not drawn)"
quantitative_result = 3.57

[[record]]
compound = "OCn1cnc2ccccc21"
quantitative_result = 3.55

